Assay: Volume of distribution at steady state in Wistar rat at 1 mg/kg, iv by HPLC-MS/MS analysis
Type: ADME, organism-based
Conditions: in vivo, read-out: Vdss
metric: Vd (L/kg)
Answer in L/kg, number only, no unit symbol.

## Task Return reported Vd. Input compound: C[C@@](c1ccc(-c2cnc(N)nc2)cc1)(c1noc(N2CCC(O)CC2)n1)C1CC1
## Result 1.6

###

Test: Oral bioavailability in Sprague-Dawley rat at 3 mg/kg by HPLC-MS/MS analysis
Assay type: ADME, organism-based
Conditions: in vivo
metric: bioavailability (%)
Answer in %, number only, no unit symbol.

## Task Return reported bioavailability. Input compound: CC(C)[C@](C)(c1ccc(-c2cnc(N)nc2)nc1)c1noc(-c2cnn(CC(C)(C)O)c2)n1
## Result 114
